Test system: SK-OV-3 ovarian
Assay: NCI tumour cell line growth inhibition, 48 h
Can you tell me TGI for the items I'm about to list?

`COc1cc(/C=C/c2csnn2)cc(OC)c1OC` has a reported TGI of > 100 µM

// sample COc1ccc2nc3c(c(N)c2c1)C1CCC3C1(C)C (stereo not given) , its TGI was > 100 µM

Value of measured TGI for the entry `CCOC(=O)c1c2c(n(-c3ccc(C)cc3)c1C)-c1ccccc1C(=O)C2(C(=O)OCC)C(=O)OCC` : > 100 µM

Briefly, TGI measured for `O=C(c1cccs1)c1c(C(F)(F)F)n([O-])c2cc(Cl)c(Cl)cc2[n+]1=O` : 4.04 µM

Lab note: measured TGI of `C1CCC(N=C2N(C3CCCCC3)C(=NC3CCCCC3)N2C2CCCCC2)CC1` was > 100 µM

Value of TGI reported for the compound `COc1ccc(-c2oc3cc(-c4cc5oc(-c6ccc(OC)cc6)c(-c6ccc(OC)cc6)c5cc4OC)c(OC)cc3c2-c2ccc(OC)cc2)cc1` is > 100 µM

Reported TGI ( `O=[N+]([O-])c1ccc(/C=N/Nc2nc3ccccc3[nH]2)o1` ) = > 100 µM

Record `CN1CCN(c2c(F)cc(NC3=C(Cl)C(=O)c4ncccc4C3=O)cc2F)CC1` , field TGI: 72 µM

Summary for this compound, `N#CC(C#N)=C/C=C(\Sc1ccc(Cl)cc1)c1ccc(F)cc1` : TGI is 40.7 µM

// TGI lookup, compound = `Oc1c(N2CCCCC2)cc(-c2cc(N3CCCCC3)c(O)c3ccccc23)c2ccccc12` , result: > 100 µM
